Every entry's value here was drawn from patent US6337316B1.

System: lymphocyte proliferation in the human MLR
Format: cell-based
condition: peptide 12.5 to 100 μM; assays of 1/24, 1/31, 3/6, 4/17, 5/2; one symbol per assay
Bridge positions count the residues as written; N and C are the ends. Ends that are not written are not given here.
recorded.metric: Human MLR (ability to inhibit lymphocyte proliferation, cpm)

CEYASPGKATEVC (disulfide 1-13 (inferred)) [AT 123.1]	−, −
CKGLDSAVEC (disulfide 1-10 (inferred)) [AT 108.1]	−, −, −
RKCLGYPPPYYCHH (not fully specified (bridges); cysteine pairing not given here) [AT 201.1]	−, −, −
ADSQVTEV-OH [AT 124.1]	−, −
